Method Notes: Phase 1 Study ABI-1648-006, single oral dose pharmacokinetics
Conditions: female, human, plasma, po, 12.5 mg, Distribution t1/2 Mean, females, single oral dose 12.5 mg
Assay Readout: half-life (h)
Use h as the unit, but write only the number.

Check the records and state half-life for CO[C@H]1/C=C/O[C@@]2(C)Oc3c(C)c(O)c4c(=O)c(c5oc6cc(N7CCN(CC(C)C)CC7)cc(O)c6nc-5c4c3C2=O)NC(=O)/C(C)=C\C=C\[C@H](C)[C@H](O)[C@@H](C)[C@@H](O)[C@@H](C)[C@H](OC(C)=O)[C@@H]1C [rifalazil] 6.1

###

Method Notes: Phase 1 Study ABI-1648-006, multiple oral dose pharmacokinetics
Conditions: male, human, plasma, oral, 12.5 mg
Assay Readout: AUC (ng·h/mL)
Your answer is read as ng·h/mL, so omit the unit and give the number.

Provide measured AUC value, entry: "CO[C@H]1/C=C/O[C@@]2(C)Oc3c(C)c(O)c4c(=O)c(c5oc6cc(N7CCN(CC(C)C)CC7)cc(O)c6nc-5c4c3C2=O)NC(=O)/C(C)=C\C=C\[C@H](C)[C@H](O)[C@@H](C)[C@@H](O)[C@@H](C)[C@H](OC(C)=O)[C@@H]1C" 398
